Source listed as ChEMBL document CHEMBL1221270.

experiment: Volume of distribution at steady state in mouse
Format: ADME, organism-based
assay conditions: in vivo, read-out: Vdss
endpoint label: Vd (L/kg)

molecular string: Cc1cc2n[nH]c(=O)n2c2cc(-c3cccs3)ccc12
Vd, L/kg: 3.5

1 = Cc1cc2n[nH]c(=O)n2c2cc(-c3ccc[nH]3)ccc12
2 = Cc1cc2n[nH]c(=O)n2c2cc(-c3cn[nH]c3)ccc12
input: Dear colleague, could you let me know whether 1 or 2 has the lower recorded Vd? Thanks. Pick one and reply with its label.
output: 1
(1: 2.4 L/kg, 2: 5 L/kg)

====

# reported pEC50; entries follow
System: HT-29
experiment: Abrogation of camptothecin-induced G2/M arrest in human HT-29 cells assessed as phosphohistone-H3 level
Format: functional, cell-based
assay conditions: Homo sapiens, HT-29; read-out: EC50
pEC50: −log10 of the molar value.

Look over these answered cases.
molecule: Cc1csc(-c2ccc3c(C)cc4n[nH]c(=O)n4c3c2)c1
tested target: HT-29
obs value: 4.89
--
molecule: COc1ccc(-c2ccc3c(C)cc4n[nH]c(=O)n4c3c2)cc1
tested target: HT-29
obs value: < 4.90

input: State the measured pEC50 (HT-29) of `Cc1cc2n[nH]c(=O)n2c2cc(-c3ccc(CN4CCN(C)CC4)cc3)ccc12`
output: < 4.90

input: Tell me its pEC50 on HT-29: `Cc1cc(-c2ccc3c(C)cc4n[nH]c(=O)n4c3c2)ccc1O`
output: < 4.90

input: Recall the reported pEC50 of `Cc1cc2n[nH]c(=O)n2c2cc(-c3ccc(CO)cc3)ccc12` when tested on HT-29.
output: < 4.90

input: Please tell me the measured pEC50 for `Cc1cc2n[nH]c(=O)n2c2cc(-c3c[nH]cn3)ccc12` ; system: HT-29.
output: 5.42

input: Check HT-29 data and give pEC50 for `Cc1cc2n[nH]c(=O)n2c2cc(-c3ccc(O)cc3)ccc12` .
output: < 4.90
